# Tested on: 519858-162-T-J1-PDC complex spheroid viability
# procedure.text: Anticancer human tumor 519858-162-T-J1-PDC patient-derived colon adenocarcinoma cell line growth inhibition [GQUAD]
# run.conditions: second compound 3.16 µM; first compound 3.16 µM; hits give low values
measurement.kind: viability, T/C (%)
Field: numeric (%). Do not append units.

Cc1cccc(N(C)C(=O)C2C(O)CCN2c2nc(C)cc(C(F)(F)F)c2C#N)c1 (centres undefined) + Cc1cnc(CNC(=O)c2c(=O)c3ccc(N4CCCN(C)CC4)nc3n3c2sc2ccccc23)cn1 | 46.1

# return viability, T/C for CC1COCCN1c1cc(-c2ccnn2C)c2ccnc(-c3ccn[nH]3)c2n1 (centres undefined) + Cc1cnc(CNC(=O)c2c(=O)c3ccc(N4CCCN(C)CC4)nc3n3c2sc2ccccc23)cn1 , test system: 519858-162-T-J1-PDC complex spheroid viability
42.9

Tell me its viability, T/C on 519858-162-T-J1-PDC complex spheroid viability: COc1ncnc(C2CC2)c1-c1ncc2cnn(Cc3ccc(-c4nc(C(F)(F)F)cn4C(C)C)cc3)c2n1 + CN(C)c1ccc(Nc2c3ccc(NC(=O)CCN4CCCC4)cc3nc3cc(NC(=O)CCN4CCCC4)ccc23)cc1
54

Specify viability, T/C for C#Cc1c(F)ccc2cc(O)cc(-c3ncc4c(N5CC6CCC(C5)N6)nc(OCC56CCCN5CC(F)C6)nc4c3F)c12 (centres undefined) + Cc1[nH]c2ccc(F)cc2c1-c1nc2c3cccnc3c3ncccc3c2[nH]1 , system 519858-162-T-J1-PDC complex spheroid viability.
76.7

###

# Tested on: 519858-162-T-J1-PDC complex spheroid viability
# procedure.text: Anticancer human tumor 519858-162-T-J1-PDC cell line growth inhibition [GQUAD];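 also: spheroids exposed to compounds for 7 days; 100% = DMSO vehicle control viability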
# run.conditions: second compound 0.316 µM; first compound 10 µM; hits give low values
measurement.kind: viability, T/C

Reference set, count: 4
COc1ccc([C@@H](O)c2cc(-c3ncnc4cc(N5CCOCC5)ccc34)c(F)cc2Cl)nn1 + Cc1cnc(CNC(=O)c2c(=O)c3ccc(N4CCCN(C)CC4)nc3n3c2sc2ccccc23)cn1 | 52%
C#Cc1c(F)ccc2cc(O)cc(-c3ncc4c(N5CC6CCC(C5)N6)nc(OCC56CCCN5CC(F)C6)nc4c3F)c12 (stereo not given) + CN(C)c1ccc(Nc2c3ccc(NC(=O)CCN4CCCC4)cc3nc3cc(NC(=O)CCN4CCCC4)ccc23)cc1 | 77.6%
O=C(c1cc(Cc2n[nH]c(=O)c3ccccc23)ccc1F)N1CCN(C(=O)C2CC2)CC1 + Cc1[nH]c2ccc(F)cc2c1-c1nc2c3cccnc3c3ncccc3c2[nH]1 | 97.1%
CC1COCCN1c1cc(-c2ccnn2C)c2ccnc(-c3ccn[nH]3)c2n1 (stereo not given) + Cc1cnc(CNC(=O)c2c(=O)c3ccc(N4CCCN(C)CC4)nc3n3c2sc2ccccc23)cn1 | 36.6%

// switching to the query compound
# return viability, T/C of COc1cc(C2c3cc4c(cc3C(OC3OC5COC(C)OC5C(O)C3O)C3COC(=O)C23)OCO4)cc(OC)c1O (stereo not given) + Cc1[nH]c2ccc(F)cc2c1-c1nc2c3cccnc3c3ncccc3c2[nH]1 (system: 519858-162-T-J1-PDC complex spheroid viability)
78.4%

###

# Test system: 519858-162-T-J1-PDC complex spheroid viability
# procedure.text: Anticancer human tumor 519858-162-T-J1-PDC cell line growth inhibition [GQUAD];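 also: spheroids exposed to compounds for 7 days; 100% = DMSO vehicle control viability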
# run.conditions: second compound 10 µM; first compound 3.16 µM; hits give low values
measurement.kind: viability, T/C

Answered cases to consult:
CC1COCCN1c1cc(-c2ccnn2C)c2ccnc(-c3ccn[nH]3)c2n1 (stereo not given) + CN(C)c1ccc(Nc2c3ccc(NC(=O)CCN4CCCC4)cc3nc3cc(NC(=O)CCN4CCCC4)ccc23)cc1 | 51.1%
Nc1ccn(C2OC(CO)C(O)C2(F)F)c(=O)n1 (stereo not given) + Cc1[nH]c2ccc(F)cc2c1-c1nc2c3cccnc3c3ncccc3c2[nH]1 | 108%
Cc1cccc(N(C)C(=O)C2C(O)CCN2c2nc(C)cc(C(F)(F)F)c2C#N)c1 (stereo not given) + CN(C)c1ccc(Nc2c3ccc(NC(=O)CCN4CCCC4)cc3nc3cc(NC(=O)CCN4CCCC4)ccc23)cc1 | 65.2%
CC1COCCN1c1cc(C2(O)CC3CCC(C2)O3)c2cnn(-c3ccn[nH]3)c2n1 (stereo not given) + Cc1cnc(CNC(=O)c2c(=O)c3ccc(N4CCCN(C)CC4)nc3n3c2sc2ccccc23)cn1 | 34.1%

Please turn your attention to the following entry.
Recall and state the measured viability, T/C for COc1cc(C2c3cc4c(cc3C(OC3OC5COC(C)OC5C(O)C3O)C3COC(=O)C23)OCO4)cc(OC)c1O (stereo not given) + Cc1cnc(CNC(=O)c2c(=O)c3ccc(N4CCCN(C)CC4)nc3n3c2sc2ccccc23)cn1 .
42.5%
